tested on: 885512-296-R-J2-PDC complex spheroid viability; assay: Anticancer human tumor 885512-296-R-J2-PDC patient-derived breast carcinoma cell line growth inhibition [GQUAD]; conditions: second compound 3.16 µM; first compound 0.0316 µM; stronger effect = lower value;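 also: spheroids exposed to the compounds for one week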
So basically every entry gets a class from its viability, T/C, ranges being bottom range (below 10%), center range (10% to below 30%), top range (30% or more)

INSERT INTO measurements (molecule, assigned_class) VALUES
  ('O=C(c1cc(Cc2n[nH]c(=O)c3ccccc23)ccc1F)N1CCN(C(=O)C2CC2)CC1 + CN(C)c1ccc(Nc2c3ccc(NC(=O)CCN4CCCC4)cc3nc3cc(NC(=O)CCN4CCCC4)ccc23)cc1', 'top range'),
  ('COc1cc(C2c3cc4c(cc3C(OC3OC5COC(C)OC5C(O)C3O)C3COC(=O)C23)OCO4)cc(OC)c1O (stereo not given) + Cc1[nH]c2ccc(F)cc2c1-c1nc2c3cccnc3c3ncccc3c2[nH]1', 'center range'),
  ('CC1COCCN1c1cc(-c2ccnn2C)c2ccnc(-c3ccn[nH]3)c2n1 (stereo not given) + CN(C)c1ccc(Nc2c3ccc(NC(=O)CCN4CCCC4)cc3nc3cc(NC(=O)CCN4CCCC4)ccc23)cc1', 'center range'),
  ('CCCS(=O)(=O)Nc1ccc(F)c(C(=O)c2c[nH]c3ncc(-c4ccc(Cl)cc4)cc23)c1F + CN(C)c1ccc(Nc2c3ccc(NC(=O)CCN4CCCC4)cc3nc3cc(NC(=O)CCN4CCCC4)ccc23)cc1', 'top range'),
  ('O=c1[nH]cc(F)c(=O)[nH]1 + Cc1[nH]c2ccc(F)cc2c1-c1nc2c3cccnc3c3ncccc3c2[nH]1', 'center range');

Prompt: Quick check: band for CC1COCCN1c1cc(C2(O)CC3CCC(C2)O3)c2cnn(-c3ccn[nH]3)c2n1 (stereo not given) + Cc1[nH]c2ccc(F)cc2c1-c1nc2c3cccnc3c3ncccc3c2[nH]1
Response: bottom range

Prompt: Which of the defined bands does the recorded viability, T/C of Nc1ccn(C2OC(CO)C(O)C2(F)F)c(=O)n1 (stereo not given) + Cc1cnc(CNC(=O)c2c(=O)c3ccc(N4CCCN(C)CC4)nc3n3c2sc2ccccc23)cn1 sit within?
Response: bottom range

Prompt: Determine which band this molecule sits in: Nc1ccn(C2OC(CO)C(O)C2(F)F)c(=O)n1 (stereo not given) + Cc1[nH]c2ccc(F)cc2c1-c1nc2c3cccnc3c3ncccc3c2[nH]1
Response: bottom range
